- target: T1, human B7-2 (CD86, B70) expressed on 293T cells (human, UniProt P42081 24-329)
- T1 construct: whole, on cells
- T1 sequence (looked up): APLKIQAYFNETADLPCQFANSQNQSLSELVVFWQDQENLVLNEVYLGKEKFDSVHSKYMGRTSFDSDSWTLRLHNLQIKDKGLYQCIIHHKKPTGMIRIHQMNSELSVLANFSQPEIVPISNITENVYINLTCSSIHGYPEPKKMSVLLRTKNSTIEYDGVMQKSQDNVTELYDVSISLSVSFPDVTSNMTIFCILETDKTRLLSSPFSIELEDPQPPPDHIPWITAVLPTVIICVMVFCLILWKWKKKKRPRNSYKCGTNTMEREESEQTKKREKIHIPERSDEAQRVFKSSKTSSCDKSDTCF
- procedure-details: CDS well image, 293T cells transfected with the human gene, stained with the human fusion protein

binder	binding result
human B7-2Ig fusion protein (Fc fusion, UniProt P42081 26-245, looked up, Bought from R&D Systems; Ig (Fc) part not given) LKIQAYFNETADLPCQFANSQNQSLSELVVFWQDQENLVLNEVYLGKEKFDSVHSKYMGRTSFDSDSWTLRLHNLQIKDKGLYQCIIHHKKPTGMIRIHQMNSELSVLANFSQPEIVPISNITENVYINLTCSSIHGYPEPKKMSVLLRTKNSTIEYDGVMQKSQDNVTELYDVSISLSVSFPDVTSNMTIFCILETDKTRLLSSPFSIELEDPQPPPDH	no binding
human B7-H2Ig fusion protein (Fc fusion, Ig (Fc) part not given) DTQEKEVRAMVGSDVELSCACPEGSRFDLNDVYVYWQTSESKTVVTYHIPQNSSLENVDSRYRNRALMSPAGMLRGDFSLRLFNVTPQDEQKFHCLVLSQSLGFQEVLSVEVTLHVAANFSVPVVSAPHSPSQDELTFTCTSINGYPRPNVYWINKTDNSLLDQALQNDTVFLNMRGLYDVVSVLRIARTPSVNIGCCIENVLLQQNLTVGSQTGNDIGERDKITENPVSTGEKNAATWS	no binding
